procedure.summary: Quantitative High-Throughput drug screen in 47 multiple myeloma cell lines against the NCATS MIPE library collection: Karpas620_DSMZ cell viability assay (AID 1918959); further: nearly all actives have a fitted effect of over 30% in size
condition.label: Karpas620 myeloma viability, CellTiter-Glo ATP luminescence, 48 h; series mostly up to 45.8 µM
Results filed as inconclusive are left out. Active and inactive are the calls of the source. The call rests on the fitted dose curve; in most records, active means well fitted cell-killing curve with a large enough effect; inconclusive means small, poorly fitted or top-dose-only effect, or effect the other way; inactive means no such curve, though single readings can be large or run the other way.
Use one of these outcomes when replying: 1 = active, 0 = inactive

Known results for compounds:
compound: CNC(=O)[C@H](CC1=CN=C2C=CCC=C12)NC(=O)[C@@H](CC(=O)NO)CC(C)C
category.label: 1
//
compound: NS(=O)(=O)c1cc(Cl)c(Cl)c(S(N)(=O)=O)c1
category.label: 0
//
compound: COc1cc2nc(-c3cc(F)ccc3O)nc(N[C@@H]3CNC[C@@H]3C(C)(C)O)c2cc1OC
category.label: 1
//
compound: O=C(Nc1ccc(OC(F)(F)F)cc1)c1sccc1NCc1ccnc2ccccc12
category.label: 1
//
compound: O=C(NCCCCN1CCOCC1)c1cc2ccccc2o1
category.label: 0
//
compound: CN1CC(=O)NC1=NC(=O)Nc1cccc(Cl)c1
category.label: 1
//
compound: CN[C@@H]1[C@@H](O)[C@@H](O[C@@H]2[C@@H](O)[C@H](O[C@H]3O[C@H](CN)[C@@H](O)[C@H](O)[C@@H]3O)[C@@H](N)C[C@@H]2NC(=O)[C@@H](O)CN)OC[C@]1(C)O
category.label: 0
//
compound: COc1c(C)cnc(Cn2cnc3c(Cl)nc(N)nc32)c1C
category.label: 1
//
compound: COc1cc2ncn(-c3cc(OCc4ccccc4S(C)(=O)=O)c(C#N)s3)c2cc1OC
category.label: 0
//
compound: CCNC(=O)CCCC=CC[C@@H]1[C@H](C=CC(O)CCc2ccccc2)[C@@H](O)C[C@@H]1O (stereo not given in full)
category.label: 0

input: Test call, this compound: `CC(C)(O)CC(=O)NCCn1ccc2ncnc(Nc3ccc(Oc4cccc(C(F)(F)F)c4)c(Cl)c3)c21`
output: 1

input: Check CC=C1C2C=C(C)CC1(N)c1ccc(=O)[nH]c1C2 (stereo not given) too.
output: 0

input: Check `CCCCC(F)(F)[C@@]1(O)CC[C@H]2[C@H](CC(=O)[C@@H]2CCCCCCC(=O)O)O1` too.
output: 0

---

procedure.summary: Quantitative High-Throughput drug screen in 47 multiple myeloma cell lines against the NCATS MIPE library collection: JIM3_ECACC cell viability assay (AID 1918963; further: nearly all actives have a fitted effect of over 35% in size)
condition.label: JIM3 myeloma viability, CellTiter-Glo ATP, 48 h; series mostly up to 45.8 µM
Records with an inconclusive call do not appear. Active and inactive are the calls of the source. Calls follow the shape of the dose curve; as a rule, active = well fitted cell-killing curve with a large enough effect; inconclusive = small, poorly fitted or top-dose-only effect; inactive = no such curve, though single readings can be large or run the other way.
Use one of these outcomes when replying: active, inactive

compound: CCOc1ccccc1N=Nc1c(C)[nH]n(-c2nc(-c3ccccc3)cs2)c1=O
category.label: inactive
//
compound: Cc1nc(C(=O)NCC(=O)O)c(O)c2ccc(Oc3ccccc3)cc12
category.label: inactive
//
compound: CCC(=O)NCC[C@@H]1CCc2ccc3c(c21)CCO3
category.label: active
//
compound: Cc1cnc(-c2cc(N3CCN(C(=O)CCS(C)(=O)=O)CC3)ncc2Cl)c(C)c1
category.label: inactive
//
compound: CON(C)C(=O)N1N=C(c2cc(F)ccc2F)S[C@]1(CCCN)c1ccccc1
category.label: inactive

input: Test call, this compound: CN(C(Cc1ccc(OS(=O)(=O)c2cccc3cnccc23)cc1)C(=O)N1CCN(c2ccccc2)CC1)S(=O)(=O)c1cccc2cnccc12 (stereo not given)
output: active

input: Check `COc1ccc(C=CC(=O)Nc2ccccc2C(=O)O)cc1OC` too.
output: inactive

input: Check `COc1c(C)cnc(Cn2cnc3c(Cl)nc(N)nc32)c1C` too.
output: active

input: Check `CCN(CC)CCCCNc1nc2cc(Cl)c(Cl)cc2nc1-c1ccc(-c2cccs2)s1` too.
output: active

input: Check `CN[C@H]1[C@@H](O[C@@H]2[C@H](O[C@@H]3[C@@H](O)[C@@H](O)[C@@H](N=C(N)N)[C@@H](O)[C@@H]3N=C(N)N)O[C@H](C)[C@@]2(O)C=O)O[C@@H](CO)[C@@H](O)[C@H]1O` too.
output: inactive

---

procedure.summary: qHTS of pediatric cancer cell lines to identify multiple opportunities for drug repurposing: Primary screen for LAN-5 cells (AID 1347100)
condition.label: LAN-5 neuroblastoma viability, CellTiter-Glo luminescence, 48 h; series mostly up to 46 µM
Results filed as inconclusive are left out. Activity calls are given as the source filed them. Calls come from the whole dose curve; as a rule, active = well fitted cell-killing curve with a large enough effect; inconclusive = small, poorly fitted or top-dose-only effect; inactive = no such curve, though single readings can be large or run the other way.
Use one of these outcomes when replying: yes (1) = active, no (0) = inactive

Known results for compounds:
compound: COc1cc2c(cc1OC)CC(=O)N(CCCN(C)C[C@H]1Cc3cc(OC)c(OC)cc31)CC2
category.label: no (0)

compound: CN1CCN2c3ncccc3Cc3ccccc3C2C1 (stereo not given)
category.label: no (0)

compound: Nc1ccn([C@@H]2O[C@H](CO)[C@@H](O)[C@H]2O)c(=O)n1
category.label: yes (1)

compound: COC(=O)[C@H](c1ccccc1Cl)N1CCc2sccc2C1
category.label: no (0)

compound: CC(O)=C(C#N)C(=O)Nc1ccc(C(F)(F)F)cc1
category.label: no (0)

compound: COc1ccc(Cn2ccc3ccc(C(=O)NO)cc32)cc1
category.label: yes (1)

input: Test call, this compound: `O=C(C=Cc1ccc(O)cc1)c1ccc(O)cc1O`
output: yes (1)

input: Check `O=C(O)CCC=CCC[C@@H]1[C@H](N2CCCCC2)[C@@H](O)C[C@@H]1OCc1ccc(-c2ccccc2)cc1` too.
output: no (0)

input: Check `FC(F)(F)c1ccc(C=Cc2nc(COc3ccc(CCCCn4ccnn4)cc3)co2)cc1` too.
output: yes (1)

input: Check `CC1CCN(c2cc(N3CCN(C)CC3)ccc2NC(=O)c2cc(C#N)c[nH]2)CC1` too.
output: no (0)

input: Check `CCC=CC[C@H]1C(=O)CC[C@@H]1CC(=O)OC` too.
output: no (0)

input: Check CCCCCOC(=O)Nc1nc(=O)n([C@@H]2O[C@H](C)[C@@H](O)C2O)cc1F (stereo not given in full) too.
output: no (0)

input: Check `CN1N=C(N)c2cn([C@@H]3O[C@H](COP(=O)(O)O)[C@@H](O)[C@@H]3O)c3ncnc1c23` too.
output: yes (1)

input: Check `CCCCCCOC(=O)N=C(N)c1ccc(NCc2nc3cc(C(=O)N(CCC(=O)OCC)c4ccccn4)ccc3n2C)cc1` too.
output: yes (1)

input: Check CC=C1C2C=C(C)CC1(N)c1ccc(=O)[nH]c1C2 (stereo not given) too.
output: no (0)

input: Check `CNc1nc(-c2ccc3c(N)n[nH]c3c2)cc(N2C[C@@H](C(=O)NC3CCCCC3)CC[C@@H]2C)n1` too.
output: yes (1)

input: Check `COc1cc(F)c(C(C)C)cc1-c1ccc(C(F)(F)F)cc1CN1C(=O)O[C@H](c2cc(C(F)(F)F)cc(C(F)(F)F)c2)[C@@H]1C` too.
output: yes (1)

input: Check `Cn1c(=O)c(Oc2ccc(F)cc2F)cc2cnc(NC3CCOCC3)nc21` too.
output: no (0)

input: Check `C[C@]12CCC3=C4CCC(=O)C=C4CC[C@@H]3[C@H]1CC[C@@]2(O)CC#N` too.
output: no (0)

input: Check `Nc1[nH]nc2nnc(-c3c(-c4ccccc4)nn4ccccc34)cc12` too.
output: yes (1)

---

procedure.summary: qHTS Screen of the MIPE 4.0 Collection Against Ewings Sarcoma (RDES) (AID 1259252); further: nearly all actives have a fitted effect of over 35% in size
condition.label: RD-ES Ewing sarcoma viability, CellTiter-Glo, 48 h; series mostly up to 45.8 µM
Inconclusive results are not listed. Activity calls are given as the source filed them. Calls follow the shape of the dose curve; as a rule, active = well fitted inhibition curve with a large enough effect; inconclusive = small, poorly fitted or top-dose-only effect; inactive = no such curve, though single readings can be large or run the other way.
Use one of these outcomes when replying: active, inactive

Known results for compounds:
compound: CC(C)(C)c1nc(-c2cccc(NS(=O)(=O)c3c(F)cccc3F)c2F)c(-c2ccnc(N)n2)s1
category.label: active
--
compound: CCN1C[C@H](C)n2c(c(O)c3c(=O)n(Cc4ccc(F)c(Cl)c4)nc(C(=O)NC)c32)C1=O
category.label: inactive
--
compound: CC(=O)Nc1cccc(-n2c(=O)n(C3CC3)c(=O)c3c(Nc4ccc(I)cc4F)n(C)c(=O)c(C)c32)c1
category.label: active

From here, focus on the item given below.
input: Test call, this compound: `C[C@@H]1[C@H](O)[C@@H](C)C=CC=CC=CC=CC=CC=CC=C[C@H](O[C@@H]2O[C@H](C)[C@H](O)[C@H](N)[C@@H]2O)C[C@@H]2O[C@](O)(C[C@@H](O)C[C@@H](O)[C@H](O)CC[C@@H](O)C[C@@H](O)CC(=O)O[C@H]1C)C[C@H](O)[C@@H]2C(=O)O`
output: active

---

procedure.summary: qHTS assay for measurement of the activity of small molecule inhibitors on Zika virus induced Caspase-3 activity in human iPSC derived neural progenitor cells (hNPCs) (AID 1224857); further: nearly all actives have a fitted effect of over 65% in size
condition.label: hNPCs ZIKV-induced caspase-3/7, Caspase-Glo luminescence, 6 h; series mostly up to 45.7 µM
Inconclusive results are not listed. Calls of active or inactive are those of the source. Calls come from the whole dose curve; as a rule, active = well fitted inhibition curve with a large enough effect; inconclusive = small, poorly fitted or top-dose-only effect; inactive = no such curve, though single readings can be large or run the other way.
Use one of these outcomes when replying: yes for active, no for inactive

Known results for molecules:
molecule: O[C@@H](COc1cccc2ncccc12)CN1CCN(C2c3ccccc3[C@@H]3[C@H](c4ccccc42)C3(F)F)CC1 (stereo partly drawn)
category.label: yes

molecule: CCNC(=O)Nc1ccc(Oc2ncnc(N)c2C=NOC)cc1Cl
category.label: no

molecule: CN[C@@H]1[C@@H](O)[C@@H](O[C@@H]2[C@@H](O)[C@H](O[C@H]3O[C@H](CN)[C@@H](O)[C@H](O)[C@@H]3O)[C@@H](N)C[C@@H]2NC(=O)[C@@H](O)CN)OC[C@]1(C)O
category.label: no

molecule: Cc1ccc2c(c1)C(=O)[C@]1(O)CCN(c3ccccc3)C1=N2
category.label: no

From here, focus on the item given below.
input: Test call, this molecule: Nc1ncnc2c1c(-c1cccc(OCc3ccccc3)c1)cn2C1CC(CN2CCC2)C1 (stereo not drawn)
output: no
